tested on: 817829-284-R-J1-PDC complex spheroid viability; assay: Anticancer human tumor 817829-284-R-J1-PDC patient-derived colon adenocarcinoma cell line growth inhibition [POLQ]; settings: second compound 0.316 µM; first compound 0.0316 µM; active = viability on the fitted dose curve at most 10% of control; inactive = the rest;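 note: spheroids exposed to compounds for 7 days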
Outcomes: T = active, F = inactive

| molecule | discrete_label |
| --- | --- |
| Nc1ccn(C2OC(CO)C(O)C2(F)F)c(=O)n1 (stereo unspecified) + Cc1cccc(N(C)C(=O)C2C(O)CCN2c2nc(C)cc(C(F)(F)F)c2C#N)c1 | T |
| CC[C@@]1(O)C(=O)OCc2c1cc1n(c2=O)Cc2cc3c(CN(C)C)c(O)ccc3nc2-1 + Nc1ccc(C#CCN(C(=O)Cc2ncc(C(F)(F)F)cc2C(F)(F)F)c2ccc(F)cc2)nn1 | F |
| CCc1cc2c(N3CCc4c(cc(Cn5ccnc5)cc4-c4cn(C)nc4C(F)(F)F)C3=O)ccnc2c(OC)n1 + Cc1cccc(N(C)C(=O)C2C(O)CCN2c2nc(C)cc(C(F)(F)F)c2C#N)c1 | F |
| CNCc1ccc(-c2[nH]c3cc(F)cc4c3c2CCNC4=O)cc1 + Cc1cccc(N(C)C(=O)C2C(O)CCN2c2nc(C)cc(C(F)(F)F)c2C#N)c1 | F |
| O=C(Nc1ccc(O)c(NS(=O)(=O)c2ccc(F)cc2)c1)c1ccc(-c2ccccc2)cc1 + Cc1cccc(N(C)C(=O)C2C(O)CCN2c2nc(C)cc(C(F)(F)F)c2C#N)c1 | F |
| CCCS(=O)(=O)Nc1ccc(F)c(C(=O)c2c[nH]c3ncc(-c4ccc(Cl)cc4)cc23)c1F + Nc1ccc(C#CCN(C(=O)Cc2ncc(C(F)(F)F)cc2C(F)(F)F)c2ccc(F)cc2)nn1 | F |

Data credit: PubChem BioAssay AID1963839
